The origin of these recorded values is patent US8309685B2.

- Study Target: wild type HCV NS3/4A 1b protease enzyme (Hepatitis C virus genotype 1b)
- Construct: 10× stocks of NS3/4A protease enzyme from Bioenza (Mountain View, Calif.); purchased Bioenza (Mountain View, Calif.)
- Sequence (P26663 1658-1711): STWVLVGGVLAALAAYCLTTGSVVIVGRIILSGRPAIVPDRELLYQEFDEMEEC
- Sequence (P26663 1027-1208): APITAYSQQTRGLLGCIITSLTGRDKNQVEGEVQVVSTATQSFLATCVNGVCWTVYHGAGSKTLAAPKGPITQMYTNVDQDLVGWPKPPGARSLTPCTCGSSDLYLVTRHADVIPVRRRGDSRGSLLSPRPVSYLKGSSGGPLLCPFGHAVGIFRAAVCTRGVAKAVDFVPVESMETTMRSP
- Method Description: biochemical
- Assay type: biochemical
- Condition Info: read-out: Inhibition, WT; WT enzyme, FRET assay
- Procedure: HCV Protease FRET Assay for Wild Type and Mutated NS3/4A 1b Enzymes (IC50) Protease reactions were started with the addition of 45 μL of the FRET substrate and monitored for 120 minutes at λex487/λem514 through Quad^4 monochromoters in a Synergy^4 plate reader from BioTek (Winooski, Vt.). At the conclusion of each assay, progress curves from each well were examined for linear reaction kinetics and fit statistics (R^2, absolute sum of squares). […]
Readout Name: IC50

Please review the entries below; each comes with its answer.
| Compound | Study Target | IC50 |
| --- | --- | --- |
| C=C[C@@H]1C[C@]1(NC(=O)[C@@H]1C[C@@H](Oc2cc(-c3ccccc3)nc3cc(OC)ccc23)CN1C(=O)CNC(=O)[C@@H](Cl)c1ccccc1)C(=O)NS(=O)(=O)c1ccccc1 (stereo in doubt) | wild type HCV NS3/4A 1b protease enzyme (Hepatitis C virus genotype 1b) | 0.1 to 1 µM |
| C=C[C@@H]1C[C@]1(NC(=O)[C@@H]1C[C@@H](Oc2cc(-c3ccccc3)nc3cc(OC)ccc23)CN1C(=O)[C@H](CCN(C)C(=O)CCl)NC(=O)OC(C)(C)C)C(=O)NS(=O)(=O)c1ccccc1 | wild type HCV NS3/4A 1b protease enzyme (Hepatitis C virus genotype 1b) | < 0.01 µM |
| C=C[C@@H]1C[C@]1(NC(=O)[C@@H]1C[C@@H](Oc2cc(-c3ccccc3)nc3cc(OC)ccc23)CN1C(=O)[C@H](CN(C)C(=O)/C=C/CN(C)C)NC(=O)OC(C)(C)C)C(=O)NS(=O)(=O)c1ccccc1 | wild type HCV NS3/4A 1b protease enzyme (Hepatitis C virus genotype 1b) | < 0.01 µM |

// IC50 lookup, key: C=C[C@@H]1C[C@]1(NC(=O)[C@@H]1C[C@@H](Oc2cc(-c3ccccc3)nc3cc(OC)ccc23)CN1C(=O)[C@H](CC1CO1)NC(=O)OC(C)(C)C)C(=O)NS(=O)(=O)c1ccccc1 (stereo partly shown)
< 0.01 µM
